experimental_readout: logP

| molecule | reported |
| --- | --- |
| O=C(NCCCCN1CCC(Oc2cccc(C(F)(F)F)c2)CC1)c1ccnc2ccccc12 | 4.22 |
| O=C(Nc1ccc2[nH]c(=O)oc2c1)C(=O)N1CCC(Cc2ccccc2)CC1 | 3.78 |
| CS(=O)(=O)N[C@H]1CC[C@H](CCN2CCN(c3cccc(Cl)c3Cl)CC2)CC1 | 4.03 |
| N#Cc1cc(N2CCN(CCCCNC(=O)c3cnc4ccccc4c3)CC2)cc(C(F)(F)F)c1 | 4.55 |
| N#Cc1cc(N2CCN(CCCCNC(=O)C=Cc3cccnc3)CC2)cc(C(F)(F)F)c1 | 3.62 |
| O=C(NCCCCN1CCC(Nc2cccc(C(F)(F)F)c2)CC1)c1ccc(Br)cc1 | 3.76 |
| O=C(CNc1ccc2[nH]c(=O)[nH]c2c1)N1CCC(Cc2ccc(F)cc2)CC1 | 3.21 |
| O=C(NCCCCN1CCC(c2cccc(C(F)(F)F)c2)CC1)c1ccc(Br)cc1 | 4.28 |
| CC(=O)NC1CCC(CCN2CCN(c3cccc(Cl)c3Cl)CC2)CC1 (stereo not given) | 4.18 |
| CCC(O)NC1CCC(CCN2CCN(c3cccc(Cl)c3Cl)CC2)CC1 (stereo not given) | 4.29 |
